This collection of values is drawn from paper PMC6445228.

- Tested on: human foreskin fibroblast (HFF)
- assay-summary: Five-day growth inhibition assay, host cell cytotoxicity
- condition-info: human, 120 h
value-kind: TD50, median toxicity dose, a measure of cytotoxicity against host cells (µM)
Write the answer as a number in µM, unit excluded.

molecule: CC(=NN=C1SCC(=O)N1Cc1ccccc1[N+](=O)[O-])c1cccs1
readout-value: 280

molecule: CCCCC(CC)=NN=C1SCC(=O)N1Cc1ccc(F)cc1
readout-value: 192

Inquiry: # input molecule: `CCCCC(CC)=NN=C1SCC(=O)N1Cc1cccc2ccccc12` ; wanted: its TD50, median toxicity dose, a measure of cytotoxicity against host cells
Reply text: 271

Inquiry: Then this molecule: `CCCCC(CC)=NN=C1SCC(=O)N1Cc1ccccc1[N+](=O)[O-]`
Reply text: 236

Inquiry: Could you do the same for `CC(=NN=C1SCC(=O)N1Cc1ccccc1F)c1cccs1` , please?
Reply text: 82

Inquiry: Moving on to the next molecule: `CCCCC(CC)=NN=C1SCC(=O)N1Cc1ccc([N+](=O)[O-])cc1`
Reply text: 98

Inquiry: Can you handle `CC(=NN=C1SCC(=O)N1Cc1ccccc1Cl)c1cccs1` next?
Reply text: 84

Inquiry: # repeat for `CCCCC(CC)=NN=C1SCC(=O)N1Cc1ccccc1Cl`
Reply text: 95

Inquiry: What about this molecule? `CCCCC(CC)=NN=C1SCC(=O)N1Cc1ccccc1F`
Reply text: 90

Inquiry: Now this one: `CCCCC(CC)=NN=C1SCC(=O)N1Cc1cccc([N+](=O)[O-])c1`
Reply text: 68

Inquiry: Ok, now `CCCCC(CC)=NN=C1SCC(=O)N1Cc1cccc(F)c1`
Reply text: 246

Inquiry: Next: `CC(=NN=C1SCC(=O)N1Cc1cccc(F)c1)c1cccs1`
Reply text: 178

Inquiry: Now consider `CC(=NN=C1SCC(=O)N1Cc1cccc(Cl)c1)c1cccs1` and answer again.
Reply text: 147

Inquiry: Try this molecule too: `CCCCC(CC)=NN=C1SCC(=O)N1Cc1ccc(Cl)cc1`
Reply text: 244

Inquiry: Follow-up item: `CCCCC(CC)=NN=C1SCC(=O)N1Cc1cccc(Cl)c1`
Reply text: 165

Inquiry: Further, for O=C1C(O)=C([C@H]2CC[C@H](c3ccc(Cl)cc3)CC2)C(=O)c2ccccc21 [Atovaquone, reference compound] ?
Reply text: 24

Inquiry: Do the same for Nc1ccc(S(=O)(=O)Nc2ncccn2)cc1 [Sulfadiazine, reference compound] please
Reply text: 281

* * *

- Test system: T. gondii RH-2 F tachyzoites
- assay-summary: Five-day growth inhibition assay (tachyzoite growth, colorimetric)
- Format: cell-based, Toxoplasma gondii
- condition-info: Toxoplasma gondii; 120 h, T. gondii RH-2 F in HFF, three experiments; read-out: IC50, median inhibitory concentration, a measure of tachyzoite inhibition
Let's look at some compounds and their measured IC50.
Report the value in µM with no unit label.

Here are 5 compounds together with their reported answers.
structure-string: CCCCC(CC)=NN=C1SCC(=O)N1Cc1cccc([N+](=O)[O-])c1
unit-spec: µM
IC50: 44
--
structure-string: CC(=NN=C1SCC(=O)N1Cc1ccccc1Cl)c1cccs1
unit-spec: µM
IC50: 34
--
structure-string: CCCCC(CC)=NN=C1SCC(=O)N1Cc1ccc([N+](=O)[O-])cc1
unit-spec: µM
IC50: 32
--
structure-string: CC(=NN=C1SCC(=O)N1Cc1cccc([N+](=O)[O-])c1)c1cccs1
unit-spec: µM
IC50: 52
--
structure-string: CCCCC(CC)=NN=C1SCC(=O)N1Cc1ccccc1Cl
unit-spec: µM
IC50: 39

Next compound, please.
Inquiry: Reported IC50, compound `CCCCC(CC)=NN=C1SCC(=O)N1Cc1cccc2ccccc12` : ____
Reply text: 37
